Listed here are binders together with their documented Avg. Fold Inc. @ 200 (fold over background).
tested_target: HLA B*07 (human)
test_method_notes: T2B7 HLA stabilisation assay, flow cytometry, peptide at 200 ug/ml
API doc: respond with a numeric literal and nothing else, no unit.

>>> numeric_result("EPPEGVKYVL [WNVB7 0013]")
1.1
>>> numeric_result("RPQRHDEKTL [WNVB7 0019]")
2.8
>>> numeric_result("VPGTKIAGML [WNVB7 0018]")
1.7
>>> numeric_result("TPGLRCLNLD [WNVB7 0024]")
1
>>> numeric_result("PFPESNSPIS [WNVB7 3411]")
1

Prompt line: Output measured Avg. Fold Inc. @ 200 (fold over background) for this item: SPHRVPNYNL [WNVB7 0020]
Response line: 2.5

Prompt line: Output measured Avg. Fold Inc. @ 200 (fold over background) for this item: GPGHEEPQLV [WNVB7 0011]
Response line: 1

Prompt line: Output measured Avg. Fold Inc. @ 200 (fold over background) for this item: AAKKKGASLL [WNVB7 0006]
Response line: 1.2

Prompt line: Output measured Avg. Fold Inc. @ 200 (fold over background) for this item: PRTNTILEDN [WNVB7 3415]
Response line: 0.9

Prompt line: Output measured Avg. Fold Inc. @ 200 (fold over background) for this item: RPAADGRTVM [WNVB7 0023]
Response line: 1.5

Prompt line: Output measured Avg. Fold Inc. @ 200 (fold over background) for this item: AVKDELNTLL [WNVB7 0004]
Response line: 1

Prompt line: Output measured Avg. Fold Inc. @ 200 (fold over background) for this item: VPCRGQDELV [WNVB7 0010]
Response line: 1

Prompt line: Output measured Avg. Fold Inc. @ 200 (fold over background) for this item: PETPQGLAKI [WNVB7 3403]
Response line: 1

Prompt line: Output measured Avg. Fold Inc. @ 200 (fold over background) for this item: NPMILAAGLI [WNVB7 0007]
Response line: 1.1

Prompt line: Output measured Avg. Fold Inc. @ 200 (fold over background) for this item: TPAAPSYTLK [WNVB7 0009]
Response line: 1.5

Prompt line: Output measured Avg. Fold Inc. @ 200 (fold over background) for this item: IPAGFEPEML [WNVB7 0008]
Response line: 1.9

Prompt line: Output measured Avg. Fold Inc. @ 200 (fold over background) for this item: PEDIDCWCTK [WNVB7 3399]
Response line: 1.1

Prompt line: Output measured Avg. Fold Inc. @ 200 (fold over background) for this item: RPRWIDARVY [WNVB7 0017]
Response line: 1.9

Prompt line: Output measured Avg. Fold Inc. @ 200 (fold over background) for this item: KPTGSASSLV [WNVB7 0015]
Response line: 1.7
